# System: kochia
# Assay Summary: Test A postemergence
# Format: in vivo, Bassia scoparia
# Condition Set: 500 g ai/ha, Postemergence; 0 to 100 scale

Compound	Plant response rating, Kochia
CC1CN(C(=O)c2cc(F)cc(-n3cncn3)c2)c2cccc(Cl)c2O1 (stereo not shown)	90
Cc1ncn(-c2cccc(C(=O)N3C[C@H](C)Oc4c(C)cccc43)c2)n1	70
CC1CN(C(=O)c2cccc(-n3cncn3)c2)c2cccc(C3CC3)c2O1 (stereo not shown)	80
CC1CN(C(=O)c2cc(-n3cncn3)ccc2F)c2cccc(Cl)c2O1 (stereo not shown)	60

###

# Tested on: ragweed
# Assay Summary: Test C preemergence
# Assay type: in vivo, Ambrosia artemisiifolia
# Condition Set: Preemergence, 500 g ai/ha; visual rating after 10 days, 0 to 100 scale (0 no effect, 100 complete control)
Readout Name: Plant response rating, Ragweed

Compound	Readout Name	Assay Value
Cc1cn(-c2cccc(C(=O)N3C[C@H](C)Oc4c(C)cccc43)c2)cn1	Plant response rating, Ragweed	0
CC(C)c1ncn(-c2cc3c(c(C(=O)N4C[C@H](C)Oc5c(Cl)cccc54)c2)OCO3)n1	Plant response rating, Ragweed	50
Cc1cc(-n2cnc(C(C)C)n2)cc(C(=O)N2C[C@H](C)Oc3c(Cl)cccc32)c1Cl	Plant response rating, Ragweed	0
Cc1ccc(-n2cnc(C(C)C)n2)cc1C(=O)N1C[C@H](C)Oc2c1cccc2C(F)(F)F	Plant response rating, Ragweed	70
Cc1cccc2c1OC(C)CN2C(=O)c1cccc(-n2ncnc2C2CC2)c1 (racemic)	Plant response rating, Ragweed	0
Cc1ccc(-n2cnc(C3(C(F)(F)F)CC3)n2)cc1C(=O)N1C[C@H](C)Oc2c(Cl)cccc21	Plant response rating, Ragweed	70
C[C@H]1CN(C(=O)c2cc(-n3cnc(C(C)(C)C)n3)cc3c2OCCO3)c2cccc(Cl)c2O1	Plant response rating, Ragweed	100
CCc1ncn(-c2ccc(OC)c(C(=O)N3C[C@H](C)Oc4c(C)cccc43)c2)n1	Plant response rating, Ragweed	100
